# IC50 listing for each entry below
# system.tested: TbINO1 (Trypanosoma brucei brucei)
# Construct: Hexa-His (N); made in house; host or cells: E. coli BL21 Rosetta (DE3)
# run.description: biochemical
# Type: biochemical
# test.settings: Table 3; metabolic intermediates; pre-incubated; glucose-6-phosphate as substrate; read-out: IC50 INO1 activity
Hi! Could you send only the number? It should be in µM, unit omitted.

Some solved entries appear below for comparison.
{"compound": "O=C(CO)COP(=O)(O)O [DHAP]", "system.tested": "TbINO1 (Trypanosoma brucei brucei)", "assay.readout": "IC50", "number": 3000}
{"compound": "O=C(O)CC(=O)C(=O)O [OAA]", "system.tested": "TbINO1 (Trypanosoma brucei brucei)", "assay.readout": "IC50", "number": 1500}

Please find the next compound below.
Exercise: Quote IC50 reported for O=C[C@H](O)COP(=O)(O)O [GAP] please.
Solution: 2000

###

# system.tested: TbINO1 (Trypanosoma brucei brucei)
# Construct: Hexa-His (N); made in house; host or cells: E. coli BL21 Rosetta (DE3)
# Sequence (Q5QQ46 1-528): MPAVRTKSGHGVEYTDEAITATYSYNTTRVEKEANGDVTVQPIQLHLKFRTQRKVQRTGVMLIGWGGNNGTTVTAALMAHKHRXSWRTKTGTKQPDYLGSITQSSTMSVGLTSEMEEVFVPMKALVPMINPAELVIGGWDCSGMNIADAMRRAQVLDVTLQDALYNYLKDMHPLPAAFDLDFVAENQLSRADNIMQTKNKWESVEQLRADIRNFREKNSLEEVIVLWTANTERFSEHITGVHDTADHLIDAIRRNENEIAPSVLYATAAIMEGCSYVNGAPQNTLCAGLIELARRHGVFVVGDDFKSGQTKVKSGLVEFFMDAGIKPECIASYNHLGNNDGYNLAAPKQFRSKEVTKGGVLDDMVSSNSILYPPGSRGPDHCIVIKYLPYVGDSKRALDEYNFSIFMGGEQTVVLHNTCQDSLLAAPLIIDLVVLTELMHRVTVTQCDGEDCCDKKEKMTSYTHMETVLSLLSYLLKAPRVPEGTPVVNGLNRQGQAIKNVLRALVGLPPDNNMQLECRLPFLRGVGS
# run.description: biochemical
# Format: biochemical
assay.readout: inhibition of INO1 activity

Some solved entries appear below for comparison.
{"compound": "CC(=O)N[C@H]1C(O)O[C@H](COP(=O)(O)O)[C@@H](O)[C@@H]1O (some centres unmarked) [Acetylglucosamine-6-P, acetylglucosamine-6-phosphate]", "result": "No inhibition"}
{"compound": "O=C[C@H](O)[C@@H](O)[C@@H](O)[C@H](O)COP(=O)(O)O [Galactose-6-P, galactose-6-phosphate]", "result": "No inhibition"}
{"compound": "CC(=O)N[C@H]1C(OP(=O)(O)O)O[C@H](CO)[C@@H](O)[C@@H]1O (some centres unmarked) [Acetylglucosamine-1-P, acetylglucosamine-1-phosphate]", "result": "No inhibition"}
{"compound": "C=C(OP(=O)(O)O)C(=O)O [PEP]", "result": "No inhibition"}
{"compound": "O=C(O)[C@H](O)[C@@H](O)[C@H](O)[C@H](O)COP(=O)(O)O [6-phosphogluconic acid]", "result": "No inhibition"}
{"compound": "O=P(O)(O)OCC(O)CO (centres unmarked) [Glycerophosphate]", "result": "No inhibition"}

Exercise: Quote inhibition of INO1 activity reported for O=C[C@@H](O)[C@@H](O)[C@H](O)[C@H](O)COP(=O)(O)O [Mannose-6-P, mannose-6-phosphate] please.
Solution: No inhibition

Exercise: Quote inhibition of INO1 activity reported for O=C(O)CC(=O)C(=O)O [OAA] please.
Solution: Inhibition was observed

Exercise: Quote inhibition of INO1 activity reported for CCCC(CCC)C(=O)O [VPA] please.
Solution: No inhibition

Exercise: Quote inhibition of INO1 activity reported for O=CC(O)CO (centres unmarked) [Glyceraldehyde, glyceraldehyde] please.
Solution: no inhibition

Exercise: Quote inhibition of INO1 activity reported for O=C(CO)CO [DHA] please.
Solution: no inhibition

Exercise: Quote inhibition of INO1 activity reported for O=C(CO)COP(=O)(O)O [DHAP] please.
Solution: Inhibition was observed

Exercise: Quote inhibition of INO1 activity reported for O=P(O)(O)O[C@H]1O[C@H](CO)[C@@H](O)[C@H](O)[C@H]1O [Glucose-1-P, glucose-1-phosphate] please.
Solution: No inhibition

Exercise: Quote inhibition of INO1 activity reported for O=C[C@H](O)COP(=O)(O)O [GAP] please.
Solution: Inhibition was observed

###

# system.tested: TbINO1 (Trypanosoma brucei brucei)
# Construct: Hexa-His (N); made in house; host or cells: E. coli BL21 Rosetta (DE3)
# run.description: biochemical
# Type: biochemical
# test.settings: Table 2; inhibitor pre-incubated with recombinant TbINO1; fructose-6-phosphate as substrate; read-out: IC50 PGI activity
assay.readout: IC50

{"compound": "CC(=O)N[C@H]1C(OP(=O)(O)O)O[C@H](CO)[C@@H](O)[C@@H]1O (stereo partly drawn) [Acetylglucosamine-1-P, acetylglucosamine-1-phosphate]", "assay.readout": "IC50", "result": "> 10 mM"}
{"compound": "O=P(O)(O)OC[C@H]1OC(O)[C@H](F)[C@@H](O)[C@@H]1O (stereo partly drawn)", "assay.readout": "IC50", "result": "1 mM"}
{"compound": "O=P(O)(O)OCC(O)CO (stereo not drawn) [Glycerophosphate]", "assay.readout": "IC50", "result": "> 10 mM"}
{"compound": "CC(=O)N[C@H]1C(O)O[C@H](COP(=O)(O)O)[C@@H](O)[C@@H]1O (stereo partly drawn) [Acetylglucosamine-6-P, acetylglucosamine-6-phosphate]", "assay.readout": "IC50", "result": "> 10 mM"}
{"compound": "COC1O[C@H](COP(=O)(O)O)[C@@H](O)[C@H](O)[C@H]1O (stereo partly drawn)", "assay.readout": "IC50", "result": "2.5 mM"}

Please find the next compound below.
Exercise: Quote IC50 reported for O=P(O)(O)O[C@H]1O[C@H](CO)[C@@H](O)[C@H](O)[C@H]1O [Glucose-1-P, glucose-1-phosphate] please.
Solution: > 10 mM

###

# system.tested: TbINO1 (Trypanosoma brucei brucei)
# Construct: Hexa-His (N); made in house; host or cells: E. coli BL21 Rosetta (DE3)
# run.description: biochemical
# Type: biochemical
assay.readout: inhibition of PGI (glucose-6-phosphate isomerase) activity

Some solved entries appear below for comparison.
{"molecule": "O=CC(O)CO (centres unmarked) [Glyceraldehyde, glyceraldehyde]", "result": "no inhibition"}
{"molecule": "CC(=O)N[C@H]1C(OP(=O)(O)O)O[C@H](CO)[C@@H](O)[C@@H]1O (some centres unmarked) [Acetylglucosamine-1-P, acetylglucosamine-1-phosphate]", "result": "No inhibition"}
{"molecule": "O=C[C@@H](O)[C@@H](O)[C@H](O)[C@H](O)COP(=O)(O)O [Mannose-6-P, mannose-6-phosphate]", "result": "No inhibition"}
{"molecule": "O=C(O)[C@H](O)[C@@H](O)[C@H](O)[C@H](O)COP(=O)(O)O [6-phosphogluconic acid]", "result": "No inhibition"}
{"molecule": "CCCC(CCC)C(=O)O [VPA]", "result": "No inhibition"}
{"molecule": "O=P(O)(O)OCC(O)CO (centres unmarked) [Glycerophosphate]", "result": "No inhibition"}
{"molecule": "O=P(O)(O)O[C@H]1O[C@H](CO)[C@@H](O)[C@H](O)[C@H]1O [Glucose-1-P, glucose-1-phosphate]", "result": "No inhibition"}
{"molecule": "C=C(OP(=O)(O)O)C(=O)O [PEP]", "result": "No inhibition"}
{"molecule": "O=C[C@H](O)[C@@H](O)[C@@H](O)[C@H](O)COP(=O)(O)O [Galactose-6-P, galactose-6-phosphate]", "result": "No inhibition"}
{"molecule": "CC(=O)N[C@H]1C(O)O[C@H](COP(=O)(O)O)[C@@H](O)[C@@H]1O (some centres unmarked) [Acetylglucosamine-6-P, acetylglucosamine-6-phosphate]", "result": "No inhibition"}

Exercise: Quote inhibition of PGI (glucose-6-phosphate isomerase) activity reported for O=C(CO)COP(=O)(O)O [DHAP] please.
Solution: Inhibition was observed

Exercise: Quote inhibition of PGI (glucose-6-phosphate isomerase) activity reported for O=C[C@H](O)COP(=O)(O)O [GAP] please.
Solution: Inhibition was observed

Exercise: Quote inhibition of PGI (glucose-6-phosphate isomerase) activity reported for O=C(O)CC(=O)C(=O)O [OAA] please.
Solution: Inhibition was observed

Exercise: Quote inhibition of PGI (glucose-6-phosphate isomerase) activity reported for O=C(CO)CO [DHA] please.
Solution: no inhibition

###

# system.tested: TbINO1 (Trypanosoma brucei brucei, UniProt Q5QQ46)
# Construct: Hexa-His (N); made in house; host or cells: E. coli BL21 Rosetta (DE3)
# Sequence (Q5QQ46 1-528): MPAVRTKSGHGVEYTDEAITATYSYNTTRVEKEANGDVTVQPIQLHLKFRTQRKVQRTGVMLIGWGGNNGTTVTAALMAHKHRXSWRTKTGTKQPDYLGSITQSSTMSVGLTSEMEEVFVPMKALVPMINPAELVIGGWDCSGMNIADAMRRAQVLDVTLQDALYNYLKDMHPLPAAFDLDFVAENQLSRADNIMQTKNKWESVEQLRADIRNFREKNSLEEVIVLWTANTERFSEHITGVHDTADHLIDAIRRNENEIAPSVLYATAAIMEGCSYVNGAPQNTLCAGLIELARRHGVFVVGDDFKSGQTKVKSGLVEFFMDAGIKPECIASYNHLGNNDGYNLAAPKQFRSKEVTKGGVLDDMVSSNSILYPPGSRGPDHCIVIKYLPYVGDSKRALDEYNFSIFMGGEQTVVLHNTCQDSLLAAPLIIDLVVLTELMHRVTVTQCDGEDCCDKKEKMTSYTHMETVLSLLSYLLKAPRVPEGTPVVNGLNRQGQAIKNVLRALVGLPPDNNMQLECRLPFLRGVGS
# run.description: biochemical
# Format: biochemical
# test.settings: Table 3; metabolic intermediates; pre-incubated; fructose-6-phosphate as substrate; read-out: IC50 PGI activity
assay.readout: IC50 (µM)
Hi! Could you send only the number? It should be in µM, unit omitted.

Some solved entries appear below for comparison.
{"smiles.repr": "O=C[C@H](O)COP(=O)(O)O", "IC50, µM": 2000}
{"smiles.repr": "O=C(CO)COP(=O)(O)O", "IC50, µM": 3000}

Exercise: Quote IC50 reported for O=C(O)CC(=O)C(=O)O please.
Solution: 2000
